Assay: qHTS for differential inhibitors of proliferation of Plasmodium falciparum line 7G8 (AID 1815);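 also: parasite growth measured after three days of incubation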
Details: Plasmodium falciparum 7G8 proliferation inhibition; series mostly up to 28.7 µM
Inconclusive results are not listed. Activity calls are given as the source filed them. Calls follow the shape of the dose curve; as a rule, active = well fitted curve in the direction sought with a large enough effect; inconclusive = small, poorly fitted or top-dose-only effect, or another doubt; inactive = no such curve, though single readings can be large or run the other way.
The categories you may choose from are 1 (active), 0 (inactive)

Some entries whose results are on file:
Query: Call for entry `O=C(O)CCCC[C@@H]1CCSS1` :
Response: 0

Query: Call for entry `c1cnc2c(c1)ccc1cccnc12` :
Response: 1

Query: Call for entry `NC(N)=NC(=O)c1nc(Cl)c(N2CCCCCC2)nc1N` :
Response: 1

Query: Call for entry `COC(=O)c1c(C)[nH]c(C)c1C(=O)c1ccccc1Cc1ccccc1` :
Response: 1

Query: Call for entry `O=C(Nc1ccccc1)c1cc([N+](=O)[O-])ccc1Cl` :
Response: 1

More entries:
Query: Call for entry Oc1ccc(C2CNCc3sccc32)cc1O (stereo not given) :
Response: 1

Query: Call for entry CO/N=C(\C(=O)N[C@@H]1C(=O)N2C(C(=O)O)=C(COC(C)=O)CS[C@H]12)c1csc(N)n1 (stereo in doubt) :
Response: 0

Query: Call for entry `O=C1NC(O)=NC1(c1ccccc1)c1ccccc1` :
Response: 0

Query: Call for entry `CCCN(CC1CC1)c1nc(C)nc(Nc2c(Cl)cc(Cl)cc2Cl)c1Cl` :
Response: 1

Query: Call for entry `Cn1c(=O)c2[nH]c(-c3ccccc3)nc2n(C)c1=O` :
Response: 0

Query: Call for entry `Oc1cc2c(cc1O)CN(C(=S)NCCc1ccc(Cl)cc1)CCC2` :
Response: 1

====

Test system: CP329
Experiment: qHTS profiling for inhibitors of Plasmodium falciparum proliferation (AID 504749);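 also: 0% = DMSO vehicle and full inhibition = artemisinin control; nearly all actives have a fitted effect of over 60% in size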
Details: P. falciparum in erythrocytes, SYBR Green DNA, 72 h; series mostly up to 28.7 µM
Records with an inconclusive call do not appear. Active and inactive are the calls of the source. The call rests on the fitted dose curve; in most records, active means well fitted inhibition curve with a large enough effect; inconclusive means small, poorly fitted or top-dose-only effect; inactive means flat fitted curve, though single readings scatter.
metricName: outcome

Solved cases below.
Query: # query: outcome of entry O=C(O)/C=C/C(O)c1ccc(Cl)cc1 (configuration not stated)
Response: inactive

Query: # query: outcome of entry `Nc1c(CC(=O)O)cccc1C(=O)c1ccc(Br)cc1`
Response: inactive

Query: # query: outcome of entry `Oc1c(Br)cc(Br)c2cccnc12`
Response: inactive

Query: # query: outcome of entry `O=C(Nc1ccc(C(=O)O)c(O)c1)c1ccccc1`
Response: inactive

Query: # query: outcome of entry `Cc1[nH]cnc1CN1CCc2c(c3ccccc3n2C)C1=O`
Response: inactive

More entries:
Query: # query: outcome of entry `O=C(O)Cc1ccc(-c2ccccc2)cc1`
Response: inactive

Query: # query: outcome of entry C=CC(N)CCC(=O)O (configuration not stated)
Response: inactive

Query: # query: outcome of entry `COc1cc2c3cc1Oc1cc(ccc1O)C[C@@H]1c4c(cc(OC)c(O)c4Oc4ccc(cc4)C[C@@H]3N(C)CC2)CC[N+]1(C)C`
Response: inactive

Query: # query: outcome of entry `C=C(Nc1ccc(OCC)cc1)Nc1ccc(OCC)cc1`
Response: inactive

Query: # query: outcome of entry `Nc1ccc(C(=O)O)c(O)c1`
Response: inactive

Query: # query: outcome of entry `O=C(O)c1cc(O)c(O)c(O)c1`
Response: inactive

Query: # query: outcome of entry `C#C[C@]1(O)CC[C@H]2[C@@H]3CCc4cc(O)ccc4[C@H]3CC[C@@]21C`
Response: inactive

====

Experiment: qHTS for differential inhibitors of proliferation of Plasmodium falciparum line GB4 (AID 1816);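 also: parasite growth measured after 72 h incubation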
Details: Plasmodium falciparum GB4 proliferation inhibition; series mostly up to 28.7 µM
Results filed as inconclusive are left out. The source made the active and inactive calls. The call rests on the fitted dose curve; in most records, active means well fitted curve in the direction sought with a large enough effect; inconclusive means small, poorly fitted or top-dose-only effect, or another doubt; inactive means no such curve, though single readings can be large or run the other way.
The categories you may choose from are active, inactive

Some entries whose results are on file:
Query: Call for entry NC(CCCP(=O)(O)O)C(=O)O (stereo unspecified) :
Response: inactive

Query: Call for entry `O=C(/C=C/c1ccc(O)c(O)c1)OCCc1ccccc1` :
Response: active

Query: Call for entry CCCCCCCCCCCCCCCCCCNC(=O)OCC(COP(=O)([O-])OCC[n+]1ccsc1)OC (stereo unspecified) :
Response: active

More entries:
Query: Call for entry `COc1ccc(NC(=O)/C=C/c2ccc(Cl)cc2)cc1` :
Response: active

Query: Call for entry `O=c1[nH]c2cc(C(F)(F)F)ccc2n1-c1cc(C(F)(F)F)ccc1O` :
Response: active

Query: Call for entry `CN(C)c1nc2c(Br)c(Br)c(Br)c(Br)c2[nH]1` :
Response: inactive

====

Target: DNA repair nuclease/redox regulator APEX1 (Homo sapiens)
Experiment: qHTS Validation Assay for Inhibitors of the Human Apurinic/apyrimidinic Endonuclease 1 (APE1) (AID 1705)
Settings: purified APE1 endonuclease activity, fluorescence, titration; series mostly up to 57.1 µM
Inconclusive results are not listed. Calls of active or inactive are those of the source. The call rests on the fitted dose curve; in most records, active means well fitted inhibition curve with a large enough effect; inconclusive means small, poorly fitted or top-dose-only effect; inactive means flat fitted curve, though single readings scatter.
The categories you may choose from are Yes (active), No (inactive)

Some entries whose results are on file:
Query: Call for entry `NCCNC(=O)c1ncsc1-c1cccc(F)c1` :
Response: No

Query: Call for entry `Cn1cc(C2=C(c3ccc(Cl)cc3Cl)C(=O)NC2=O)c2ccccc21` :
Response: Yes

Query: Call for entry `O=C(O)[C@@H]1C[C@@H](C(=O)O)N1` :
Response: No

Query: Call for entry CN(C)CCC(c1ccc(Cl)cc1)c1ccccn1 (stereo unspecified) :
Response: No

Query: Call for entry `Clc1ccc(N2CCN(Cc3c[nH]c4ncccc34)CC2)cc1` :
Response: No

Query: Call for entry `O=c1[nH]c2cc(Cl)c(Cl)cc2[nH]c1=O` :
Response: No

Query: Call for entry `N#C/C(=C\c1ccc(O)c(O)c1)C(=O)NCCCc1ccccc1` :
Response: No

Query: Call for entry `CC(C)NC[C@H](O)COc1cccc2[nH]ccc12` :
Response: No

Query: Call for entry COc1cccc(OC)c1OCCNCC1COc2ccccc2O1 (stereo unspecified) :
Response: No

Query: Call for entry `CN1CCc2cc(NC(=O)Nc3cccnc3)ccc21` :
Response: No

More entries:
Query: Call for entry `N#C/C(=C\c1ccc(O)c(O)c1)C(=O)NCc1ccccc1` :
Response: No

Query: Call for entry `CCCn1c(=O)c2[nH]c(-c3ccc(OCC(=O)NCCN)cc3)nc2n(CCC)c1=O` :
Response: No

Query: Call for entry CN1CCc2cc(O)c(O)cc2C(c2ccccc2)C1 (stereo unspecified) :
Response: No

Query: Call for entry `CC(C)Cc1ccc([C@H](C)C(=O)O)cc1` :
Response: No

Query: Call for entry CCCCC/C=C\CC(O)/C=C/c1cccc(CC(O)CCCCO)n1 (stereo unspecified) :
Response: No

Query: Call for entry `COC(=O)c1c(C)[nH]c(C)c1C(=O)c1ccccc1Cc1ccccc1` :
Response: No

Query: Call for entry `OC[C@H]1O[C@@H](n2cnc3c(NC4CCCCC4)ncnc32)[C@H](O)[C@@H]1O` :
Response: No

Query: Call for entry CC12C(=O)OC(=O)C1(C)C1CCC2O1 (stereo unspecified) :
Response: No

Query: Call for entry `CCCCN1CCC(n2c(=O)[nH]c3ccccc32)CC1` :
Response: No

Query: Call for entry `c1ccc(-c2ccccn2)nc1` :
Response: No

Query: Call for entry Cc1ccccc1CNc1ncnc2c1ncn2C1OC(CO)C(O)C1O (stereo unspecified) :
Response: No

Query: Call for entry O=C1O/C(=C/Br)CCC1c1cccc2ccccc12 (stereo unspecified) :
Response: No

Query: Call for entry CCCCCCCCCCCCCCCC(=O)OC(CC(=O)O)C[N+](C)(C)C (stereo unspecified) :
Response: No

Query: Call for entry `CCN1/C(=C/C(C)=O)Sc2ccc(OC)cc21` :
Response: No

Query: Call for entry `N.N.O=C(O)C1(C(=O)O)CCC1.[Pt]` :
Response: No

Query: Call for entry CC(COc1ccc(/C=C/c2ccccc2)cc1)[N+](C)(C)C (stereo unspecified) :
Response: No

Query: Call for entry `CN[C@H](CC(C)C)C(=O)N[C@H]1C(=O)N[C@@H](CC(N)=O)C(=O)N[C@H]2C(=O)N[C@H]3C(=O)N[C@H](C(=O)N[C@H](C(=O)O)c4cc(O)cc(O)c4-c4cc3ccc4O)[C@H](O)c3ccc(c(Cl)c3)Oc3cc2cc(c3O[C@@H]2O[C@H](CO)[C@@H](O)[C@H](O)[C@H]2O[C@H]2C[C@](C)(N)[C@H](O)[C@H](C)O2)Oc2ccc(cc2Cl)[C@H]1O` :
Response: No

Query: Call for entry `CC(C)(C)c1ccc(S(=O)(=O)/C=C/C#N)cc1` :
Response: No

Query: Call for entry `CC(=O)N[C@H](C(=O)O)C(C)(C)SN=O` :
Response: No

Query: Call for entry `O=C(O)[C@@H]1C[C@H](C(=O)O)N1` :
Response: No

Query: Call for entry `O=C(O)CC[C@@H](C(=O)O)N1C(=O)c2ccccc2C1=O` :
Response: No
